Numbers sourced from patent EP4585618A1.

Tested On: T1, His-tagged ILT4 protein extracellular domain: ILT4-His (human, UniProt Q8N423 22-460)
T1 construct: Expressed in 293 cells; also called human ILT4-His protein
T1 sequence (Q8N423 other isoform, or with tags, fused parts or gaps limits assumed): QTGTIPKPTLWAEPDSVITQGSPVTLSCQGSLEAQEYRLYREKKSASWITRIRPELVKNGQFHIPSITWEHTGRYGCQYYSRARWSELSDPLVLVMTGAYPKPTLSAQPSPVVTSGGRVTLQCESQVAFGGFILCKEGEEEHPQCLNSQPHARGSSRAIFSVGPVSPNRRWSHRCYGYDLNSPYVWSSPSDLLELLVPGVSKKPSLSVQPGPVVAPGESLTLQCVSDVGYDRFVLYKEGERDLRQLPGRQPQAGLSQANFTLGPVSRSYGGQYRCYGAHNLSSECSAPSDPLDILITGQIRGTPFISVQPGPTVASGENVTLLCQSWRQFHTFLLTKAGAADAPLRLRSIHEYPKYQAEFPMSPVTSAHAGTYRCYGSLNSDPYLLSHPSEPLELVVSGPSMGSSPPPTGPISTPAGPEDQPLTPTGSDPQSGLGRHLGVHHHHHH
Experiment: ELISA, coated protein 1 µg/mL, antibody 10 µg/mL
This section presents binders with their documented absorbance at 450 nm values.
Measured Property: absorbance at 450 nm (absorbance at 450 nm)

[
  {
    "Binder": "humanized antibody huP2-E3 (antibody, human IgG4 S228P, kappa, F234A L235A, V domains shown, Full chains; The constant region is hIgG1(LALA) or hIgG4(LALA) with a kappa CL; also called P2-E3H6L2) VH: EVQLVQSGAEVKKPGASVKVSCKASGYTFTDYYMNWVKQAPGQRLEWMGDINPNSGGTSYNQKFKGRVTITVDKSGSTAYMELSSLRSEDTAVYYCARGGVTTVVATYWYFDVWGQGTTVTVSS VL: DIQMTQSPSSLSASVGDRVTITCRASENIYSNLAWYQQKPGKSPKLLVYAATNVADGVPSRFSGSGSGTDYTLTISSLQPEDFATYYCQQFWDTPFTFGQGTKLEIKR",
    "Unit": "absorbance at 450 nm",
    "Measurement": 1.04
  },
  {
    "Binder": "humanized antibody huP2-E8 (antibody, human IgG4 S228P, kappa, F234A L235A, V domains shown, Full chains; also called P2-E8H4L1) VH: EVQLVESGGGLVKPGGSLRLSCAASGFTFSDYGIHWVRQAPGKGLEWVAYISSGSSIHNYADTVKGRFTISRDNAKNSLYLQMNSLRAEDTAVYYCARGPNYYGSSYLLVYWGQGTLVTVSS VL: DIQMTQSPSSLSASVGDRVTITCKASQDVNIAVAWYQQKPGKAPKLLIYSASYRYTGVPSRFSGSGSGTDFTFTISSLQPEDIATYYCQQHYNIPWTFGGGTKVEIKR",
    "Unit": "absorbance at 450 nm",
    "Measurement": 0.954
  }
]
